- Test system: Vero E6
- assayMethodText: drug sensitivity score (DSS) for viability; higher = more toxic; extreme values may be limits of the assay
- conditionDescription: 72 h
// drug sensitivity score lookup, one value per entry
Answer as a number with no unit attached.

[
  {
    "molecule": "CCn1c(-c2nonc2N)nc2c(C#CC(C)(C)O)ncc(OC[C@H]3CCCNC3)c21",
    "drug sensitivity score": 0
  },
  {
    "molecule": "O=C(Nc1c(Cl)cncc1Cl)c1ccc(OC(F)F)c(OCC2CC2)c1",
    "drug sensitivity score": 0
  },
  {
    "molecule": "Clc1ccccc1CN1CCc2sccc2C1",
    "drug sensitivity score": 0
  },
  {
    "molecule": "O=C(/C=C\\n1cnc(-c2cc(C(F)(F)F)cc(C(F)(F)F)c2)n1)NNc1cnccn1 [selinexor]",
    "drug sensitivity score": 12.9
  }
]

O=C1C(=Cc2cccnc2)C(=O)c2ccccc21 yielded drug sensitivity score of 0.2

###

- Test system: HepG2
- assayMethodText: drug sensitivity score (DSS) for viability; higher = more toxic; extreme values may be limits of the assay
- conditionDescription: 72 h
endpoint: drug sensitivity score

Solved entries (count: 3):
[
  {
    "compound": "Nc1nc(N)c(N=O)c(OCC2CCCCC2)n1",
    "drug sensitivity score": 3.7
  },
  {
    "compound": "CCc1cc(C(N)=S)ccn1 [ethionamide]",
    "drug sensitivity score": 0
  },
  {
    "compound": "COc1ccc(CCCO[C@@H](Cn2ccnc2)c2ccc(OC)cc2)cc1",
    "drug sensitivity score": 3.2
  }
]

Given item CC(=O)NCCCCCC(=O)O , the value recorded as its drug sensitivity score is 0

Sure, the documented drug sensitivity score for COc1ccc2[nH]c([S+]([O-])Cc3ncc(C)c(OC)c3C)nc2c1 (centres undefined) is 0

Input COc1cc([C@@H]2c3cc4c(cc3[C@@H](O[C@@H]3O[C@@H]5CO[C@@H](C)O[C@H]5[C@H](O)[C@H]3O)[C@H]3COC(=O)[C@H]23)OCO4)cc(OC)c1OP(=O)(O)O [etoposide-phosphate] . Output drug sensitivity score: 10

For O=C(NS(=O)(=O)c1ccc(Br)s1)c1ccc(Cl)cc1Cl the compound record lists drug sensitivity score as 0

In plain terms, Clc1cccc(/C=N/N=C/c2cccc(Cl)c2)c1 has a documented drug sensitivity score of 0.3

The reported drug sensitivity score of the compound COc1ccc(COc2ccc(Cc3cnc(N)nc3N)cc2OC)cc1 was 0

Documented drug sensitivity score of CC(=O)[C@H]1CC[C@H]2[C@@H]3CCC4=CC(=O)CC[C@]4(C)[C@H]3CC[C@]12C : 0

Form: compound = O=C(O)c1c2ccccc2cc2ccccc12 ; drug sensitivity score = 0

Documented drug sensitivity score of N=C(N)N : 0

The compound listed as O=C(O)COCCN1CCN(C(c2ccccc2)c2ccc(Cl)cc2)CC1 (centres undefined) has a reported drug sensitivity score of 0

Query CC(=O)CC(c1ccccc1)c1c(O)c2ccccc2oc1=O (centres undefined) yields drug sensitivity score of 0

###

- Tested on: U2OS
- assayMethodText: cell viability relative to DMSO; higher = less toxic
- conditionDescription: 72 h; 10 nM
endpoint: cell viability (%)
Field: numeric (%). Do not append units.

# cell viability of CN(C)[C@@H](CCOc1cccc2ccccc12)c1ccccc1 = 103

Per the records, this molecule ( Fc1ccc(Cl)cc1-c1nc(Nc2ccncc2)c2nccnc2n1 ) has cell viability equal to 101

Looking up COc1ccc2c(c1)CN(C)CC2c1ccc(Cl)c(Cl)c1 (stereo unspecified) , I found its cell viability recorded as 103

cell viability recorded for this molecule, NC(=O)c1ccccc1O [salicylamide] , is 108

The reported value for CCc1cc2c(c(CC)n1)CCC(=O)N2Cc1ccc(-c2ccccc2-c2nnn[nH]2)cc1 in terms of cell viability is 97.4

Given item O=C(C1CCCCC1)N1CC(=O)N2CCc3ccccc3C2C1 (stereo unspecified) , the value recorded as its cell viability is 104

###

Each entry below lists one item and its recorded cell viability value.
- Test system: HepG2
- assayMethodText: cell viability relative to DMSO; higher = less toxic
- conditionDescription: 72 h; 10 nM
State just the number; it will be interpreted in %.

[
  {
    "molecule": "COc1ncc(-c2ccc3c(Nc4cc(Oc5cc(F)cc(F)c5)cc(C(=O)O)c4)c(S(=O)(=O)NC4CC4)cnc3c2)c(OC)n1",
    "cell viability (%)": 107
  },
  {
    "molecule": "Cc1[nH]nc(C(F)(F)F)c1Cc1sc2c(c1C(=O)N1C[C@](C)(O)CO1)c(=O)n(C)c(=O)n2C(C)C",
    "cell viability (%)": 89.2
  },
  {
    "molecule": "C=CC(=O)c1ccc2ccccc2c1",
    "cell viability (%)": 108
  }
]

The molecule identified as CC(C)(C#N)c1ccc(N2C(=O)OCc3cnc4ccc(-c5cnc6ccccc6c5)cc4c32)cc1 registered its cell viability at 113

Recorded result, CSc1ccc2c(c1)N(CCC1CCCCN1C)c1ccccc1S2 (stereo not given) , cell viability: 110

Lab note: CO[C@@H]1[C@H](O)[C@@H](CO)O[C@H]1n1cnc2c(NC3CCCCC3)ncnc21 gave cell viability of 93.4

Recorded result, O=C(/C=C\n1cnc(-c2cc(C(F)(F)F)cc(C(F)(F)F)c2)n1)NNc1cnccn1 [selinexor] , cell viability: 99.2

cell viability measured on C[C@H](NC(=O)C(C)(C)Oc1ccc(C(F)(F)F)cn1)[C@@H](Cc1ccc(Cl)cc1)c1cccc(C#N)c1 = 106

Summary for this molecule, CC(C)[C@H]1[C@@H]2CC[C@@H](C2)[C@@H]1N : cell viability is 95

response.value for NC(=O)c1ccc[n+]([C@@H]2O[C@H](COP(=O)([O-])OP(=O)(O)OC[C@H]3O[C@@H](n4cnc5c(N)ncnc54)[C@H](O)[C@@H]3O)[C@@H](O)[C@H]2O)c1 [nadide] (field: cell viability) = 113

molecule CC(=O)OCC(=O)[C@@]1(O)CC[C@H]2[C@@H]3CCC4=CC(=O)CC[C@]4(C)[C@@]3(F)[C@@H](O)C[C@@]21C [FLUDROCORTISONE ACETATE] , cell viability observed: 95.9

###

- System: Caco-2
- assayMethodText: cell viability relative to DMSO; higher = less toxic
- conditionDescription: 72 h; 1 nM
endpoint: cell viability (%)
Quick note: give the figure in %, leave out the unit.

Examples from the recorded data:
[
  {
    "compound": "CN(C)[C@@H](CCOc1cccc2ccccc12)c1ccccc1",
    "unitsLabel": "%",
    "cell viability": 98.5
  },
  {
    "compound": "CO[C@@H]1[C@H](O)[C@@H](CO)O[C@H]1n1cnc2c(NC3CCCCC3)ncnc21",
    "unitsLabel": "%",
    "cell viability": 84.7
  },
  {
    "compound": "C[C@@H]1COCCN1c1cc(C2(S(C)(=O)=O)CC2)nc(-c2cccc3[nH]ccc23)n1",
    "unitsLabel": "%",
    "cell viability": 88.1
  },
  {
    "compound": "CC(=O)N1CCC[C@H]1C(=O)N[C@@H](Cc1cnc[nH]1)C(=O)N[C@@H](CO)C(=O)N[C@@H](CS)C(=O)N[C@@H](CC(N)=O)C(N)=O",
    "unitsLabel": "%",
    "cell viability": 107
  },
  {
    "compound": "CSc1ccc2c(c1)N(CCC1CCCCN1C)c1ccccc1S2 (stereo not drawn)",
    "unitsLabel": "%",
    "cell viability": 110
  },
  {
    "compound": "CN1CC(=O)N=C1NC(=O)Nc1cccc(Cl)c1",
    "unitsLabel": "%",
    "cell viability": 93.1
  }
]

# cell viability (compound: Oc1ccc(-c2nc(-c3ccc(F)cc3)c(-c3ccncc3)[nH]2)cc1 ) is 88.1

Documented cell viability of NC[C@H]1O[C@H](O[C@H]2[C@H](O)[C@@H](O[C@H]3O[C@H](CO)[C@@H](O)[C@H](N)[C@H]3O)[C@H](N)C[C@@H]2N)[C@H](O)[C@@H](O)[C@@H]1O : 94.3

###

In this section we review reported cell viability values for a set of compounds.
- Test system: U2OS
- assayMethodText: cell viability relative to DMSO; higher = less toxic
- conditionDescription: 72 h; 1000 nM
Lab book: enter the figure in %, no units written.

The following compounds have reported results that may help.
[
  {
    "compound": "C[C@@H]1COCCN1c1cc(C2(S(C)(=O)=O)CC2)nc(-c2cccc3[nH]ccc23)n1",
    "cell viability (%)": 94.3
  },
  {
    "compound": "C=C(CC)C(=O)c1ccc(OCC(=O)O)c(Cl)c1Cl",
    "cell viability (%)": 102
  },
  {
    "compound": "CC(=O)NCCc1c[nH]c2ccccc12",
    "cell viability (%)": 99.3
  }
]

# COc1ccccc1OCC(O)CN1CCN(CC(=O)Nc2c(C)cccc2C)CC1 (stereo not given) with U2OS: cell viability is 96.1

Simply: CCOC(=O)c1ccc(O)cc1 , U2OS, cell viability = 98.3
